The reported measurements were obtained from patent US9862711B2.

Target: PI 3-kinase alpha (Homo sapiens (Human))
Sequence (P42336 whole entry): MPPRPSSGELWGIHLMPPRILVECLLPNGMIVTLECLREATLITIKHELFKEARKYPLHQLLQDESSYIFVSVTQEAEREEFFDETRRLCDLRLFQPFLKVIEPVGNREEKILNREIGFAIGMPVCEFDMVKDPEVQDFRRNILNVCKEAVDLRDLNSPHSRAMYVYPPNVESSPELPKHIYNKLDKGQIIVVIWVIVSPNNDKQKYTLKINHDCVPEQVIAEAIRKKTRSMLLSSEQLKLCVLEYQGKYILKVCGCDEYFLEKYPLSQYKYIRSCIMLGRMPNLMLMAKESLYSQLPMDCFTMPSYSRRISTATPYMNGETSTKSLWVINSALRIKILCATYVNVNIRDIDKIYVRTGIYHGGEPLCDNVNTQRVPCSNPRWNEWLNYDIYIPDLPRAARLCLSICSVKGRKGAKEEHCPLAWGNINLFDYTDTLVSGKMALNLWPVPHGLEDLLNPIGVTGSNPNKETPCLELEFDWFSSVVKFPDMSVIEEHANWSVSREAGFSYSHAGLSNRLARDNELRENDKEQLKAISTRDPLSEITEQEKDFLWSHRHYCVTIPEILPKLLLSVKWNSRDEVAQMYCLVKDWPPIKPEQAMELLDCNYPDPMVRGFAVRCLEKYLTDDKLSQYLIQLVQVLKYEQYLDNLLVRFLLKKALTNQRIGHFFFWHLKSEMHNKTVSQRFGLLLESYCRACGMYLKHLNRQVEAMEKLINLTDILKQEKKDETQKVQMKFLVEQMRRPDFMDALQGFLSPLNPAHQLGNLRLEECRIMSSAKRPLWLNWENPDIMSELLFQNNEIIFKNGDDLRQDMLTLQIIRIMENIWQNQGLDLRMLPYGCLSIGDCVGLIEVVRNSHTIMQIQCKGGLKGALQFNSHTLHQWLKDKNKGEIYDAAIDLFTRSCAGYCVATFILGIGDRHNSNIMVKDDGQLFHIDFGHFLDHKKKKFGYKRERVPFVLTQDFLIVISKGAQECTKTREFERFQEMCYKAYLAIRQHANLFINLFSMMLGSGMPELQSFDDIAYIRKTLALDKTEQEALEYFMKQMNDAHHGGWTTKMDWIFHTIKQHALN
Sequence (Q63787 whole entry partner): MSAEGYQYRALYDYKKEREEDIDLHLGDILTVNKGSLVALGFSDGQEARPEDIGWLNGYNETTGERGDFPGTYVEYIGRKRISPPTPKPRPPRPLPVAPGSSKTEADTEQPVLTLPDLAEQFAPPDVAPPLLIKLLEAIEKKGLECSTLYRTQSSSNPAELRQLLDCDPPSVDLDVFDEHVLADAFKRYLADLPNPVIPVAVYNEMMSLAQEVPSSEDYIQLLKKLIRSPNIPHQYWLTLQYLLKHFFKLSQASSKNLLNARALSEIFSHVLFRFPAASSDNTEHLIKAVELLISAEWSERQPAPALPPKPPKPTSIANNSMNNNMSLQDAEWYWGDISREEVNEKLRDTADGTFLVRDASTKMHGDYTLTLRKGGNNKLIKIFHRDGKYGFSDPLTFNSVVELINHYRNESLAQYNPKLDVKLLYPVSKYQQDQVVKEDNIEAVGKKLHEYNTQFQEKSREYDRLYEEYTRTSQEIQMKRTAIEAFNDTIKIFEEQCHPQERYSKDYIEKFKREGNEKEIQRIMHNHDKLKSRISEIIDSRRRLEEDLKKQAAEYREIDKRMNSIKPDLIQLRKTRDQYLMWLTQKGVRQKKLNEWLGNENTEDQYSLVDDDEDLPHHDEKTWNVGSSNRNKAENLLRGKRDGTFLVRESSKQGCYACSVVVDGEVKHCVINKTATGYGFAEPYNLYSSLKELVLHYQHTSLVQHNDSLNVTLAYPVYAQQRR
Experiment: Cellular p-Akt (S473) SureFire assay, Rat-1_PI3Kalpha cells (Assay H)
Assay type: cell-based
Conditions: p-AKT (Ser473) in Rat-1 cells expressing myr-HA-hp110 alpha, 1 h compound; read-out: Assay H PI3Kα IC50
Consider the following molecules; for each one, report its IC50.
Give the value in µM but do not write µM after it.

Would you mind telling me what IC50 value was observed for Cc1ccc(S(=O)(=O)NC2CC3(CC(O)C3)C2)cc1-c1cncc(-c2cn(C)nc2C)n1 (stereo not drawn) [Example 6] ?
0.709

Try Cc1ccc(S(=O)(=O)NCC(C)(C)O)cc1-c1cncc(-c2cn(C)nc2C)n1 [Example 2] next.
0.45

Try Cc1ncc(-c2cncc(-c3cc(S(=O)(=O)N[C@H]4CC[C@H](O)CC4)ccc3C)n2)s1 [Example 5] next.
0.838

Try Cc1ccc(S(=O)(=O)N[C@H]2CC[C@H](O)CC2)cc1-c1cncc(-c2csc(CN3CCOCC3)c2)n1 [Example 12] next.
1.14

Try Cc1ccc(S(=O)(=O)N[C@H]2CC[C@H](O)CC2)cc1-c1cncc(-c2cccnc2)n1 [Example 11] next.
1.7

Try Cc1ccc(S(=O)(=O)NCC2(C)COC2)cc1-c1cncc(-c2cn(C)nc2C)n1 [Example 4] next.
0.293

Try Cc1ccc(S(=O)(=O)NCCC(C)(C)O)cc1-c1cncc(-c2cn(CCN3CCOCC3)nc2C)n1 [Example 10] next.
3.09

Try Cc1ccc(S(=O)(=O)NCCC(C)(C)O)cc1-c1cncc(-c2cn(C)nc2C)n1 [Example 3] next.
1.02

Try Cc1ccc(S(=O)(=O)NCCC(C)(C)O)cc1-c1cncc(-c2cnn(CCN3CCOCC3)c2)n1 [Example 9] next.
2.48
